Entries and their measured LogP follow.
# assay remarks: physchem
# Type: physicochemical

| molecule | LogP |
| --- | --- |
| FC(F)(F)c1cccc(Oc2cnc(Cl)cc2C2=NOCC(c3ccc4ccccc4c3)N2)c1 (racemic) [Compound I-053] | 4.20^[a] |
| Cc1ccc(CC2CON=C(c3cc(Cl)ncc3Oc3cccc(C4CC4)c3F)N2)c(C)c1 (single isomer, unassigned) [Compound I-022] | 4.93^[a] |
| Cc1ccc(CC2CON=C(c3cc(Cl)ncc3Oc3ccc4c(c3)OC(F)(F)O4)N2)c(C)c1 (racemic) [Compound I-114] | 4.65^[a] |
| Cc1cc(Br)ccc1CC1CON=C(c2cc(Cl)ncc2Oc2cccc(C(F)(F)F)c2)N1 (stereo not shown) [Compound I-158] | 4.81^[a] |
| NOCC(Cc1ccc(Cl)cc1Cl)NC(=O)c1cc(Cl)ncc1Oc1cccc(C2CC2)c1 (stereo not shown) [4-03] | 4.06^[a] |
| Cc1ccc(CC2CON=C(c3cc(Cl)ncc3Oc3cccc(C4CC4)c3F)N2)c(C)c1 (racemic) [Compound I-014] | 4.89^[a] |
| Cc1cccc(CC(CCl)NC(=O)c2cc(Cl)ncc2Br)c1Cl (stereo not shown) [17-05] | 3.97 ^[a] |
| Cc1ccc(C(CCl)NC(=NO)c2cc(Cl)ncc2Oc2cccc(C(F)(F)F)c2)cc1 (stereo not shown) [16-12] | 4.19^[a] |
| Cc1ccc(CC(CCl)NC(=O)c2c(Oc3cccc(C(F)(F)F)c3)cnc(Cl)c2F)c(C)c1 (stereo not shown) [14-01] | 5.03^[a] |
| C#Cc1cc(C2=NOCC(Cc3ccc(Br)cc3C)N2)c(Oc2cccc(C(F)(F)F)c2)cn1 (racemic) [Compound I-091] | 4.19^[a] |
| Fc1c(Oc2cnc(Cl)cc2C2=NOCC(Cc3ccc(Br)cc3Cl)N2)cccc1C1CC1 (racemic) [Compound I-023] | 5.11^[a] |
| Cc1ccc(CC2CON=C(c3cc(Cl)ncc3Oc3ccc4c(c3)CCC4)N2)c(C)c1 (racemic) [Compound I-100] | 5.16^[a] |
| Cc1cccc(Oc2cnc(Cl)cc2C2=NOCC(Cc3ccc(Cl)cc3Cl)N2)c1F (stereo not shown) [Compound I-135] | 4.75^[a] |
| Oc1cc(C2=NOCC(Cc3ccc(Br)cc3Cl)N2)c(Oc2cccc(C(F)F)c2)cn1 (stereo not shown) [Compound I-137] | 4.56^[a] |
| O=C(O)c1c(Oc2cccc(C(F)(F)F)c2)cnc(Cl)c1I [Compound 1-17] | 2.49^[a] |
| O=C(O)c1cc(Cl)ncc1Oc1cccc(C2CC2)c1F [Compound 1-06] | 2.97^[a] |

---

# assay remarks: physchem
# Format: physicochemical
Entries and their measured LogP follow.
test readout: LogP

| compound | test readout | reported value |
| --- | --- | --- |
| FC(F)(F)c1cccc(Oc2cnc(Cl)cc2C2=NOCC(C3(c4ccccc4)CC3)N2)c1 (racemic) | LogP | 4.21^[a] |
| Cc1ccc(CC2CON=C(c3cc(Cl)nc(F)c3Oc3cccc(C(F)(F)F)c3)N2)c(C)c1 (racemic) | LogP | 4.97^[a] |
| Cc1ccc(CC(CON2C(=O)c3ccccc3C2=O)NC(=O)c2cc(Cl)ncc2Oc2cccc(C(F)(F)F)c2)c(C)c1 (stereo not shown) | LogP | 5.20^[a] |
| FC(F)(F)Sc1cccc(Oc2cnc(Cl)cc2C2=NOCC(Cc3ccc(Cl)cc3Cl)N2)c1 (racemic) | LogP | 5.16^[a] |
| Cc1cccc(Oc2cnc(Cl)cc2C2=NOCC(Cc3ccc(C)cc3C)N2)c1 (racemic) | LogP | 4.55^[a] |
| FC(F)(F)c1cccc(Oc2cnc(Cl)cc2C2=NOCC(Cc3csc(C(F)(F)F)c3)N2)c1 (racemic) | LogP | 4.40^[a] |
| Cc1ccc(CC(CCNC(c2ccccc2)(c2ccccc2)c2ccccc2)NC(=O)c2cc(Cl)ncc2Oc2cccc(C(F)(F)F)c2)c(C)c1 (stereo not shown) | LogP | 5.35^[a] |
